Class t: logP at least 1. Class f: logP below 1.

### Prompt hey, is logP for this one >= 1? Nc1cc(N2CCCCC2)nc(N)[n+]1[O-]
### Response t

### Prompt hey, is logP for this one >= 1? CCI
### Response t

### Prompt hey, is logP for this one >= 1? O=C(O)CONC(=O)Nc1ccccc1
### Response f

### Prompt hey, is logP for this one >= 1? CF
### Response f

### Prompt hey, is logP for this one >= 1? O=[N+]([O-])c1cc[n+]([O-])c2ccc(Cl)cc12
### Response t

### Prompt hey, is logP for this one >= 1? Cc1ccc2cc(C)c(C)cc2c1
### Response t

### Prompt hey, is logP for this one >= 1? COc1ccc2c3c1O[C@H]1[C@@H](O)C=C[C@H]4[C@@H](C2)N(C)CC[C@@]341
### Response t

### Prompt hey, is logP for this one >= 1? O=C1C=CC(=O)C=C1
### Response f

### Prompt hey, is logP for this one >= 1? COc1ccc(CC(=O)O)cc1
### Response t

### Prompt hey, is logP for this one >= 1? CCCCCOC(N)=O
### Response t

### Prompt hey, is logP for this one >= 1? CC(=O)C(C#N)=NNc1ccc([N+](=O)[O-])cc1[N+](=O)[O-]
### Response t

### Prompt hey, is logP for this one >= 1? NNC(=O)c1ccnc(F)c1
### Response f

### Prompt hey, is logP for this one >= 1? Cc1cc(N)c(C)c(O)c1C(=O)O
### Response t

### Prompt hey, is logP for this one >= 1? Brc1ccncc1
### Response t

### Prompt hey, is logP for this one >= 1? COCc1ccccc1
### Response t

---

Consider the following molecules; for each one, report its logP.
I'd appreciate a reply containing only the number, no unit.

### Prompt What value of logP has been reported for the following molecule? O=C1CC2OCC=C3CN4CC[C@]56c7ccccc7N1C5[C@H]2[C@H]3C[C@H]46 (stereo partly specified)
### Response 1.93

### Prompt What value of logP has been reported for the following molecule? Cc1ccc2[nH]ccc2c1
### Response 2.68

### Prompt What value of logP has been reported for the following molecule? O=c1[nH]c2ccccc2n1CCCN1CCC(n2c(=O)[nH]c3cc(Cl)ccc32)CC1
### Response 3.9

### Prompt What value of logP has been reported for the following molecule? Cc1ncc(CO)c(CO)c1O
### Response -0.77

### Prompt What value of logP has been reported for the following molecule? Cc1c(C)c(C)c(C)c(C)c1C
### Response 5.11

### Prompt What value of logP has been reported for the following molecule? Cc1ccc(C(C)C)cc1
### Response 4.1

### Prompt What value of logP has been reported for the following molecule? CCC#N
### Response 0.16

### Prompt What value of logP has been reported for the following molecule? Cc1cccnc1
### Response 1.2

### Prompt What value of logP has been reported for the following molecule? CCc1ccccc1C
### Response 3.53

### Prompt What value of logP has been reported for the following molecule? c1ccc2c(c1)[nH]c1ccccc12
### Response 3.72

### Prompt What value of logP has been reported for the following molecule? CCCN(CCC)S(=O)(=O)c1ccc(C(=O)O)cc1
### Response 3.21

### Prompt What value of logP has been reported for the following molecule? CC=CC
### Response 2.33

### Prompt What value of logP has been reported for the following molecule? Oc1cccc(O)c1
### Response 0.8

### Prompt What value of logP has been reported for the following molecule? Nc1ncnc2c1ncn2[C@H]1CC[C@@H](CO)O1
### Response -0.25

### Prompt What value of logP has been reported for the following molecule? O=C1C=CC(=NO)C=C1
### Response 1.08

### Prompt What value of logP has been reported for the following molecule? Cn1nnc2ccccc21
### Response 1.13

---

Consider the following molecules; for each one, report its logP.
I'd appreciate a reply containing only the number, no unit.

### Prompt What value of logP has been reported for the following molecule? CCCCCCCN
### Response 2.57

### Prompt What value of logP has been reported for the following molecule? Oc1cccc(C(F)(F)F)c1
### Response 2.95

### Prompt What value of logP has been reported for the following molecule? Cc1ccnc2c(O)cccc12
### Response 2.41

### Prompt What value of logP has been reported for the following molecule? O=C(O)c1cccc(F)c1
### Response 2.15

### Prompt What value of logP has been reported for the following molecule? CN(C)CCN1c2ccccc2Sc2ccccc21
### Response 4.2

### Prompt What value of logP has been reported for the following molecule? Cc1ccccc1N(C)C
### Response 2.85

### Prompt What value of logP has been reported for the following molecule? Oc1ccc2ccccc2c1
### Response 2.7

### Prompt What value of logP has been reported for the following molecule? CC(=O)Nc1ccc(C(=O)O)cc1
### Response 1.31

### Prompt What value of logP has been reported for the following molecule? Cc1cccc(OCC(=O)O)c1
### Response 1.78

### Prompt What value of logP has been reported for the following molecule? CC(C)C[C@H](N)C(=O)O
### Response -1.52

### Prompt What value of logP has been reported for the following molecule? Nc1ccccc1O
### Response 0.62

### Prompt What value of logP has been reported for the following molecule? O=C1CN=C(c2ccccc2)c2cc(Cl)ccc2N1CC1CC1
### Response 3.73

### Prompt What value of logP has been reported for the following molecule? CCN(CC)CCNC(=O)c1ccc(N)cc1
### Response 0.88

### Prompt What value of logP has been reported for the following molecule? COC(=O)c1ccccc1O
### Response 2.55

### Prompt What value of logP has been reported for the following molecule? CNC(=O)Oc1ccc(OC)cc1
### Response 1.2

### Prompt What value of logP has been reported for the following molecule? CCCN(CCC)CCC
### Response 2.79

### Prompt What value of logP has been reported for the following molecule? c1ccsc1
### Response 1.81

---

Consider the following compounds; for each one, report its logP.
I'd appreciate a reply containing only the number, no unit.

### Prompt What value of logP has been reported for the following compound? COc1cc(CCN)cc(OC)c1OC
### Response 0.78

### Prompt What value of logP has been reported for the following compound? COC(=O)C(C#N)=NNc1cc(C(F)(F)F)ccc1Cl
### Response 4.42

### Prompt What value of logP has been reported for the following compound? O=C(O)c1cccc(O)c1
### Response 1.5

### Prompt What value of logP has been reported for the following compound? c1ccc(Nc2ccccc2)cc1
### Response 3.5

### Prompt What value of logP has been reported for the following compound? CC(=O)c1ccc(Br)cc1
### Response 2.43

### Prompt What value of logP has been reported for the following compound? C/C=N/O
### Response -0.13

### Prompt What value of logP has been reported for the following compound? Clc1ccccc1-c1ccccc1
### Response 4.53

### Prompt What value of logP has been reported for the following compound? CNC(=O)c1ccccc1
### Response 0.86

### Prompt What value of logP has been reported for the following compound? Nc1nc2[nH]nnc2c(=O)[nH]1
### Response -0.71

### Prompt What value of logP has been reported for the following compound? Oc1c(Br)cc(Br)cc1Br
### Response 4.13

### Prompt What value of logP has been reported for the following compound? Cc1cc(Cl)ccc1O
### Response 2.63

### Prompt What value of logP has been reported for the following compound? COc1ccc(CN(CCN(C)C)c2ccccn2)cc1
### Response 3.27

### Prompt What value of logP has been reported for the following compound? NS(=O)(=O)c1ccccc1Cl
### Response 0.74

### Prompt What value of logP has been reported for the following compound? N[C@@H](Cc1c[nH]c2ccccc12)C(=O)O
### Response -1.06

### Prompt What value of logP has been reported for the following compound? O=[N+]([O-])c1cc(Cl)c(O)c(Cl)c1
### Response 2.94

### Prompt What value of logP has been reported for the following compound? Nc1ncnc2c1ncn2[C@H]1C[C@H](F)[C@@H](CO)O1
### Response 0.08

### Prompt What value of logP has been reported for the following compound? S=C=Nc1ccccc1
### Response 3.28

### Prompt What value of logP has been reported for the following compound? CN
### Response -0.57

### Prompt What value of logP has been reported for the following compound? NC12CC3CC(CC(C3)C1)C2
### Response 2.44

### Prompt What value of logP has been reported for the following compound? OCCCCCc1ccncc1
### Response 1.39

### Prompt What value of logP has been reported for the following compound? CCOc1cccc(O)c1
### Response 1.98

### Prompt What value of logP has been reported for the following compound? CSc1ccc2c(c1)N(CCC1CCCCN1C)c1ccccc1S2 (stereo not drawn)
### Response 5.9

### Prompt What value of logP has been reported for the following compound? C[C@]12CCC(=O)C=C1CC[C@@H]1[C@@H]2C(=O)C[C@@]2(C)[C@H]1CC[C@]2(O)C(=O)CO
### Response 1.47

### Prompt What value of logP has been reported for the following compound? C1CCCC1
### Response 3

### Prompt What value of logP has been reported for the following compound? Nc1cc[nH]c(=O)n1
### Response -1.73

### Prompt What value of logP has been reported for the following compound? CSc1ccccc1
### Response 2.74

### Prompt What value of logP has been reported for the following compound? CCCCNC(=O)NS(=O)(=O)c1ccc(N)cc1
### Response 1.01

### Prompt What value of logP has been reported for the following compound? Cc1ccccc1O
### Response 1.95

### Prompt What value of logP has been reported for the following compound? ClC(Cl)(Cl)Cl
### Response 2.83

### Prompt What value of logP has been reported for the following compound? CC(=O)C=Cc1ccccc1
### Response 2.07

### Prompt What value of logP has been reported for the following compound? Clc1cccc(-c2ccccc2)c1
### Response 4.58

### Prompt What value of logP has been reported for the following compound? c1ccc2nc3ccccc3cc2c1
### Response 3.4

### Prompt What value of logP has been reported for the following compound? CNC(=O)Oc1ccc(F)cc1
### Response 1.28
